Study system: recombinant CETP (rCETP) (Homo sapiens, UniProt P11597)
Sequence (P11597 18-493): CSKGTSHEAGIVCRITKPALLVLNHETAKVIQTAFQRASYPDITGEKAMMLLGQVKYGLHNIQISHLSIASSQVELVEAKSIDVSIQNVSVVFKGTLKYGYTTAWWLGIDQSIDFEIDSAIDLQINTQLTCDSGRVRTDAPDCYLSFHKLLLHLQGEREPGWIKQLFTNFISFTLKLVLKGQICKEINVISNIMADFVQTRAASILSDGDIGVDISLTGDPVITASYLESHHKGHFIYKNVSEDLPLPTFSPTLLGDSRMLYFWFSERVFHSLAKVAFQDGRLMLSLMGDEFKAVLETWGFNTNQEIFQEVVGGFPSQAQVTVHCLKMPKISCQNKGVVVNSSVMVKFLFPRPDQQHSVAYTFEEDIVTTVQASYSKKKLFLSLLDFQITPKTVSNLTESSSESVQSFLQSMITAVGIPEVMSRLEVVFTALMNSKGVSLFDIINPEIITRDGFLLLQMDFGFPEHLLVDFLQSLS
Assay notes: RTA assay using recombinant CETP (2% RTA)
Format: biochemical
Condition: RTA assay in 2% human serum; read-out: IC50
Recorded pIC50, one value per entry.
Just the number, please; pIC50 means minus log10 of the concentration in mol/L.

Q) Value lookup for pIC50; key = CCOC(=O)[C@@H]1C[C@H]1c1ccc(OC)c(-c2ccc(N3CCC3)nc2CN2C(=O)O[C@H](c3cc(C)cc(C)c3)[C@@H]2C)c1 [Example 208]
A) 7.60

Q) Value lookup for pIC50; key = COC(=O)c1ccc(-c2cc(-c3ccc(N4CCC4)nc3CN3C(=O)O[C@H](c4cc(F)c(F)c(F)c4)[C@@H]3C)c(OC)cc2F)c(C)c1 [Example 36]
A) 7.59

Q) Value lookup for pIC50; key = COc1ccc(CCC(=O)O)cc1-c1ccc(N2CCCCC2)nc1CN1C(=O)O[C@H](c2cc(C(F)(F)F)cc(C(F)(F)F)c2)[C@@H]1C [Example 271]
A) 7.02

Q) Value lookup for pIC50; key = COc1ccc([C@@H]2CC[C@H](C(=O)O)C2)cc1-c1ccc(N2CCC2)nc1CN1C(=O)O[C@H](c2cc(C(F)(F)F)cc(C(F)(F)F)c2)[C@@H]1C (single isomer, unassigned) [Example 246]
A) 7.92

Q) Value lookup for pIC50; key = C[C@H]1[C@@H](c2cc(C(F)(F)F)cc(C(F)(F)F)c2)OC(=O)N1Cc1nc(N2CCC2)ccc1-c1cc(CCCO)ccc1OC1CC1 [Example 260]
A) 7.92

Q) Value lookup for pIC50; key = COc1ccc(-c2cc(C(=O)O)on2)cc1-c1ccc(N2CCC2)nc1CN1C(=O)O[C@H](c2cc(C(F)(F)F)cc(C(F)(F)F)c2)[C@@H]1C [Example 93]
A) 7.74
